System: NCI-H23 lung
Test: NCI-60 one-dose screen, 48 h (100 = growth as untreated, 0 = no growth, -100 = all killed)
Settings: 10 µM unless noted
About 83,000 compounds went through this panel and 20% of them were active in at least one assay; those are over-represented in the sample as a whole. Active and inactive are the calls of the source. How the source made its calls: active means growth percent below 10; inactive means the rest.
assay-metric: growth

[[record]]
line_notation = "O=[N+]([O-])c1cc(I)cc([N+](=O)[O-])c1"
result = "95.9% (inactive)"

[[record]]
line_notation = "C[C@@]12CC[C@@H](O)C[C@@H]1CC[C@H]1[C@H]2CC[C@@]2(C)[C@H](c3ccc(=O)oc3)CC[C@@]12O"
result = "-50% (active)"

[[record]]
line_notation = "CCOc1ccc(/C=C/[N+](=O)[O-])cc1"
result = "87.8% (inactive)"

[[record]]
line_notation = "O=C(Nc1ccc(O)cc1)C(Cl)(Cl)Cl"
result = "101% (inactive)"

[[record]]
line_notation = "C[Se]C(=O)c1ccccc1OC(C)=O"
result = "53.9% (inactive)"

[[record]]
line_notation = "COC1=CC(=O)O[C@@H](/C=C/c2ccc3c(c2)OCO3)C1"
result = "117% (inactive)"

